Answer each item with its documented IC50.
# experimental-target: human recombinant kinase full-length AKT1 E17K (Homo sapiens, UniProt P31749, E17K)
# Construct: Purified human recombinant kinase full-length AKT1 E17K was expressed in insect cells
# Sequence (P31749 whole entry E17K): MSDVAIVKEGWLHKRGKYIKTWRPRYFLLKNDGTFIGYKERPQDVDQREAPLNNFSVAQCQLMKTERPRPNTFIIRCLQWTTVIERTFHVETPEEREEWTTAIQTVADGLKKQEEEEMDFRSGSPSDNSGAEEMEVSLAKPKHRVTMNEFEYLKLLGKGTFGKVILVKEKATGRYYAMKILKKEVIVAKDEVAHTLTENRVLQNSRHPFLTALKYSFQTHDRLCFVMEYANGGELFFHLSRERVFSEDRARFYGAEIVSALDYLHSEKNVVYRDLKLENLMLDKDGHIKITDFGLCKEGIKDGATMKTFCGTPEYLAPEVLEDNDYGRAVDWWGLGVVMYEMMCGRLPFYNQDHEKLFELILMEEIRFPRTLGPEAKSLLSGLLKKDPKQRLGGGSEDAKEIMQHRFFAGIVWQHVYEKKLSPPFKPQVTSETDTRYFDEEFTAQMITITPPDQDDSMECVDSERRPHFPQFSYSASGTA
# experimental-details: AKT1 E17K kinase assay (TR-FRET, Lance)
# reported-conditions: 0.6 nM AKT1 E17K, 50 nM Ulight-CREBtide, either 50 μM ATP or 2 mM ATP, 60 min at RT

Data request, read-out IC50, for Cc1nc(NC(=O)[C@H]2CC[C@H](C(=O)O)CC2)ccc1-n1c(-c2cccnc2N)nc2ccc(-c3ccc(F)cc3)nc21
500 to 2000 nM

Data request, read-out IC50, for CC(C)N(Cc1ccc(-n2c(-c3cccnc3N)nc3ccc(-c4ccccc4)nc32)cc1)[C@H]1CC[C@H](C(=O)O)CC1
≥ 2000 nM

Data request, read-out IC50, for Nc1ncccc1-c1nc2ccc(-c3ccccc3)nc2n1-c1ccc(CNC2CCC(C(=O)O)CC2)cc1 (stereo not shown)
500 to 2000 nM

Data request, read-out IC50, for Nc1ncccc1-c1nc2ccc(C3CCOCC3)cc2n1-c1ccc(NC(=O)[C@H]2CC[C@H](C(=O)O)CC2)cc1
≥ 2000 nM

Data request, read-out IC50, for Nc1ncccc1-c1nc2ccc(-c3ccccc3)nc2n1-c1ccc(C2CN(C[C@@H]3CC4CC3CC4C(=O)O)C2)cc1 (stereo partly shown)
< 500 nM

Data request, read-out IC50, for CC1(C)CC(C(=O)O)CCN1Cc1ccc(-n2c(-c3cccnc3N)nc3ccc(-c4ccccc4)nc32)cc1 (stereo not shown)
≥ 2000 nM

Data request, read-out IC50, for CC(C)(C)c1ccc2nc(-c3cccnc3N)n(-c3ccc(NC(=O)[C@H]4CC[C@H](C(=O)O)CC4)cc3)c2c1
≥ 2000 nM
